Every entry's value here was drawn from PubChem BioAssay (Tox21).

- PROTOCOL_NOTES: Caspase-3/7 induction in CHO-K1 cells by small molecules, qHTS assay (AID 1346980); also: nearly all actives have a fitted effect of over 15% in size
- CONDITION_DETAILS: CHO-K1 caspase-3/7 induction, Caspase-Glo luminescence, 17 h; series mostly up to 92.4 µM
Activity calls are given as the source filed them. Calls follow the shape of the dose curve; as a rule, active = well fitted activation curve with a large enough effect in the repeat runs; inconclusive = weak or mixed curves; inactive = flat fitted curve, though single readings scatter.
Hello, when you answer, please use one of the following outcomes: y (active), n (inactive)

Observe how each entry below is paired with its result.
[Cl-].[Cl-].[Cl-].[Yb+3] : n
O=C(N[C@@H]1N=C(c2ccccc2F)c2cccc3c2N(CC3)C1=O)c1cc2ccccc2[nH]1 : n
O=C1C[C@@H]2OCC=C3CN4CC[C@]56c7ccccc7N1[C@H]5[C@H]2[C@H]3C[C@H]46 : n
C1=CCC=C1 : n
O=C(O)[C@H](O)[C@@H](O)C(=O)O : n

Please let me know the test result on file for "O=[N+]([O-])c1ccc(CCl)cc1" .
n

I would be grateful if you could indicate the recorded call for "CCCCCCCCCCCCCCn1cc[n+](C)c1" .
n

So what was the verdict on "CCCCN(CCCC)C(=S)S" in this test?
n

Assay outcome for "C[C@]12Cc3cn[nH]c3C[C@@H]1CC[C@@H]1[C@@H]2CC[C@@]2(C)[C@H]1CC[C@]2(C)O" : what was it?
n

State the result this test recorded for CCNc1nc(NC(C)C(C)C)nc(SC)n1 (configuration not stated) .
n

Which outcome did this test record for the compound "CCC[CH2][Sn]([CH2]CCC)([CH2]CCC)[CH2]CCC" ?
y

Record lookup: outcome of this test for "CN(C)CCc1c[nH]c2ccccc12" ?
n

====

- PROTOCOL_NOTES: qHTS assay to identify small molecule that activate the aryl hydrocarbon receptor (AhR) signaling pathway - cell viability counter screen (AID 743086);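 also: HepG2 liver cells carrying the AhR DRE luciferase reporter; nearly all actives have a fitted effect of over 45% in size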
- CONDITION_DETAILS: HepG2-AhR-luc viability, CellTiter-Fluor, 24 h; series mostly up to 70.3 µM
Records with an inconclusive call do not appear. Active and inactive are the calls of the source. Calls follow the shape of the dose curve; as a rule, active = well fitted cell-killing curve with a large enough effect in the repeat runs; inconclusive = weak or mixed curves, or effect the other way; inactive = flat fitted curve, though single readings scatter.
Use one of these outcomes when replying: active, inactive

O=C(NC(=O)c1c(F)cccc1F)Nc1ccc(Oc2ccc(C(F)(F)F)cc2Cl)cc1F : inactive
CC1CCCC1 : inactive
CC(=O)[O-].CC(=O)[O-].[Co+2] : inactive

Next:
Could you kindly confirm the outcome this assay logged for "CO/N=C(\C(=O)OC)c1ccccc1CO/N=C(\C)c1cccc(C(F)(F)F)c1" ?
inactive

====

- PROTOCOL_NOTES: qHTS assay to identify small molecule antagonists of the estrogen receptor alpha (ER-alpha) signaling pathway using the BG1 cell line in the presence of 0.1 nM 17-beta-estradiol - cell viability counter screen (AID 1259241); also: nearly all actives have a fitted effect of over 40% in size
- CONDITION_DETAILS: VM7Luc4E2 (BG1) viability, CellTiter-Fluor protease, 22 h, 0.1 nM estradiol agonist added; series mostly up to 92.4 µM
Results filed as inconclusive are left out. The source made the active and inactive calls. Calls come from the whole dose curve; as a rule, active = well fitted cell-killing curve with a large enough effect in the repeat runs; inconclusive = weak or mixed curves, or effect the other way; inactive = flat fitted curve, though single readings scatter.
Outcome field: choose from 1 = active, 0 = inactive

Worked examples follow.
CSSC : 0
CCCCn1cc[n+](C)c1 (tested in a mixture with another compound) : 0

What call does the record list for "Nc1ccc(Cl)cc1C(=O)c1ccccc1F" ?
0

Could you please tell me the result logged for CCO/N=C(\CC)C1=C(O)CC(c2c(C)cc(C)cc2C)CC1=O (stereo not drawn) in this assay?
0

Could you please tell me the result logged for "COc1nc(C)nc(NC(=O)NS(=O)(=O)c2ccccc2Cl)n1" in this assay?
0

====

- PROTOCOL_NOTES: qHTS assay to identify small molecule antagonists of the estrogen receptor beta (ER-beta) signaling pathway - cell viability counter screen (AID 1259382); also: nearly all actives have a fitted effect of over 55% in size
- CONDITION_DETAILS: ER-beta-UAS-bla HEK293T viability, CellTiter-Glo luminescence, 16 h; series mostly up to 92.4 µM
Results filed as inconclusive are left out. Active and inactive are the calls of the source. Calls follow the shape of the dose curve; as a rule, active = well fitted cell-killing curve with a large enough effect in the repeat runs; inconclusive = weak or mixed curves; inactive = flat fitted curve, though single readings scatter.
I would appreciate it if you answered using one of these outcomes: active, inactive

CCN(CC)C(=S)S : active
COP(=S)(OC)Oc1ccc([N+](=O)[O-])c(C)c1 : inactive
ClCBr : inactive
O=C(Cl)c1ccccc1F : inactive
CC1(C)[C@H](/C=C2\CCSC2=O)[C@@H]1C(=O)OCc1coc(Cc2ccccc2)c1 : inactive

# lookup: test call for C#CCC1=C(C)C(OC(=O)C2C(C=C(C)C)C2(C)C)CC1=O (stereo not given)
inactive

Test call for this compound, please: COC(=O)C(C)N(C(=O)c1ccco1)c1c(C)cccc1C (stereo not given)
inactive

====

- PROTOCOL_NOTES: A CellTox Green Cytotoxicity Assay to monitor cytotoxicity in HEK293 cells - 40 hour (AID 1224871); also: nearly all actives have a fitted effect of over 45% in size
- CONDITION_DETAILS: CellTox Green fluorescence; series mostly up to 76.8 µM
Inconclusive results are not listed. Calls of active or inactive are those of the source. Calls come from the whole dose curve; as a rule, active = well fitted activation curve with a large enough effect in the repeat runs; inconclusive = weak or mixed curves; inactive = flat fitted curve, though single readings scatter.
Your reply should match one of these outcome classes. active, inactive

Answered examples (5):
O=C(N[C@@H]1N=C(c2ccccc2F)c2cccc3c2N(CC3)C1=O)c1cc2ccccc2[nH]1 : active
[F][Sn]([c]1ccccc1)([c]1ccccc1)[c]1ccccc1 : active
CNC(=O)/C=C(\C)OP(=O)(OC)OC : inactive
CCCCCON=O : inactive
COc1ccc2c(c1OC)C(=O)O[C@@H]2[C@H]1c2cc3c(cc2CCN1C)OCO3 : inactive

Kindly provide the recorded test outcome for the following molecule: "CCOP(=O)(Sc1ccccc1)Sc1ccccc1"
inactive

Short answer needed: outcome of this test for "Oc1cccc(Cl)c1Cl" ?
inactive

Dear all, I need the recorded test outcome for "COc1nc(C)nc(NC(=O)NS(=O)(=O)c2ccccc2Cl)n1" , thank you.
inactive

Returns: the outcome recorded for "CC(=O)[O][Sn]([c]1ccccc1)([c]1ccccc1)[c]1ccccc1" in this assay.
active

Would you mind telling me which call this test gave CCn1cc[n+](C)c1 (tested in a mixture with another compound) ?
inactive

====

- PROTOCOL_NOTES: qHTS assay to identify small molecule agonists of the androgen receptor (AR) signaling pathway in the presence of an antagonist - cell viability counter screen (AID 1259379);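 also: MDA-kb2 human breast cancer cells carrying an MMTV luciferase reporter; nearly all actives have a fitted effect of over 25% in size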
- CONDITION_DETAILS: MDA-kb2 viability, CellTiter-Fluor, 16 h; series mostly up to 92.4 µM
Inconclusive results are not listed. The source made the active and inactive calls. The call rests on the fitted dose curve; in most records, active means well fitted cell-killing curve with a large enough effect in the repeat runs; inconclusive means weak or mixed curves, or effect the other way; inactive means flat fitted curve, though single readings scatter.
Answer with one of the outcomes given here: class 1 (active), class 0 (inactive)

Worked examples, 5 molecules total:
Cc1ccccc1OP(=O)(Oc1ccccc1C)Oc1ccccc1C : class 0
ClCBr : class 0
O.O.O.O.O.O.O=S(=O)([O-])[O-].[Ni+2] : class 0
O=C(Cl)c1ccccc1F : class 0
CC(=O)[O-].CC(=O)[O-].O.O.O.[Pb+2] : class 0

Check the results log: what was the call for "CCN(CC)C(=S)S" ?
class 0

# fetch the recorded call for "O=C(N[C@H]1N=C(c2ccccc2F)c2cccc3c2N(CC3)C1=O)c1cc2ccccc2[nH]1" here
class 0

====

- PROTOCOL_NOTES: qHTS assay to identify small molecule agonists of the estrogen receptor beta (ER-beta) signaling pathway - cell viability counter screen (AID 1259380); also: nearly all actives have a fitted effect of over 30% in size
- CONDITION_DETAILS: ER-beta-bla HEK293T viability, CellTiter-Glo luminescence, 16 h; series mostly up to 92.4 µM
Records with an inconclusive call do not appear. Activity calls are given as the source filed them. Calls follow the shape of the dose curve; as a rule, active = well fitted cell-killing curve with a large enough effect in the repeat runs; inconclusive = weak or mixed curves, or effect the other way; inactive = flat fitted curve, though single readings scatter.
MEASURED_ATTRIBUTE: outcome

CCC(C)c1cccc(C(C)CC)c1O (stereo not drawn) : inactive
CCOP(=O)(OCC)Oc1cc(C)nc(C(C)C)n1 : inactive
O=C(NC(=O)c1ccccc1Cl)Nc1ccc(OC(F)(F)F)cc1 : inactive

====

- PROTOCOL_NOTES: qHTS assay to identify small molecule agonists of the estrogen receptor beta (ER-beta) signaling pathway - cell viability counter screen (AID 1259380); also: nearly all actives have a fitted effect of over 30% in size
- CONDITION_DETAILS: ER-beta-bla HEK293T viability, CellTiter-Glo luminescence, 16 h; series mostly up to 92.4 µM
Records with an inconclusive call do not appear. Activity calls are given as the source filed them. Calls follow the shape of the dose curve; as a rule, active = well fitted cell-killing curve with a large enough effect in the repeat runs; inconclusive = weak or mixed curves, or effect the other way; inactive = flat fitted curve, though single readings scatter.
Reply using exactly one outcome from 1 for active, 0 for inactive

Known results for compounds:
CNC(=O)O/N=C(\C)C(C)S(C)(=O)=O (stereo not given) : 0
CC(=O)C(Cl)C(=O)N(C)C (stereo not given) : 0
Nc1ccccc1-c1ccccc1 : 1
CNC(=O)CSP(=O)(OC)OC : 0
CC[C@H](C)[C@H]1O[C@]2(C=C[C@@H]1C)C[C@@H]1C[C@@H](C/C=C(\C)[C@@H](O[C@H]3C[C@H](OC)[C@@H](O[C@H]4C[C@H](OC)[C@@H](NC)[C@H](C)O4)[C@H](C)O3)[C@@H](C)/C=C/C=C3\CO[C@@H]4[C@H](O)C(C)=C[C@@H](C(=O)O1)[C@]34O)O2 : 1
c1ccc2c(c1)cc1ccc3cccc4ccc2c1c34 : 0

Can you look up the reported call for "C=CCOC(=O)c1ccccc1N" for me?
1

Lab log entry: "COP(=O)(OC)Oc1ccc([N+](=O)[O-])cc1" — outcome as called in the assay?
0

Hi team, can someone confirm the assay call for "CC(=O)[O-].CC(=O)[O-].CC(=O)[O-].[Cr+3]" ?
0

What did the test return for FC(F)C(F)(F)OCC(Cn1cncn1)c1ccc(Cl)cc1Cl (stereo not given) ?
1
